# Tested target: TLR8 (Homo sapiens, UniProt Q9NR97)
# Sequence (Q9NR97 27-1041): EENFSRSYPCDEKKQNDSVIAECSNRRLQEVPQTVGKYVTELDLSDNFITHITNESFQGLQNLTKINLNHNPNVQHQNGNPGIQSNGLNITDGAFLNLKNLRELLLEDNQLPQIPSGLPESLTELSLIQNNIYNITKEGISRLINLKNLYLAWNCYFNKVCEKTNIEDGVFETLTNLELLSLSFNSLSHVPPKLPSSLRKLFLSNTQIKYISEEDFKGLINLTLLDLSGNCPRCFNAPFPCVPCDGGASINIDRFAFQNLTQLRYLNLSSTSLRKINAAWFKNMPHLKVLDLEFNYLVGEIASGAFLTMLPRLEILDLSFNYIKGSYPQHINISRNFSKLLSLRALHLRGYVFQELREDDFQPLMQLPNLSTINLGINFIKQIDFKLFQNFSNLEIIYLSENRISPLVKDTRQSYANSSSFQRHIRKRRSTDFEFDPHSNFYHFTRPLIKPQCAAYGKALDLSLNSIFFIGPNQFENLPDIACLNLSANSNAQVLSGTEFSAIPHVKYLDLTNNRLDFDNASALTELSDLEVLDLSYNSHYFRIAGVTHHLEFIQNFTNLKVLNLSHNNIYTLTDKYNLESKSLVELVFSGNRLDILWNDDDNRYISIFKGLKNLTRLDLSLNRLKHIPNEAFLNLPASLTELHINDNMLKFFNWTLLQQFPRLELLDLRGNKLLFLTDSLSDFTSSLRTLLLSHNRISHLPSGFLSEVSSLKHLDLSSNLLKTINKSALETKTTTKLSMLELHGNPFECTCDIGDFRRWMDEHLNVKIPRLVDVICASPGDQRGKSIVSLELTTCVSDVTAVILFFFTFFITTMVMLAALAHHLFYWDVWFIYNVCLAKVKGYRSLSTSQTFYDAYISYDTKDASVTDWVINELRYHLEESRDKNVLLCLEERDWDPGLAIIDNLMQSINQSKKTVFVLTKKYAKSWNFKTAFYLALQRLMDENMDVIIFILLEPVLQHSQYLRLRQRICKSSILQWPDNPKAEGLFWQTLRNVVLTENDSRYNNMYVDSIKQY
# Protocol description: HEK/293 TLR8 Cell Assay
# Conditions used: HEK cells, R848 agonist 30 uM final concentration, Steady-Glo readout; read-out: TLR8 potency
pIC50: −log10 of the molar value.
Task for the reader: assign each of the following molecules its reported pIC50.

Some solved entries appear below for comparison.
q: Item C[C@@H]1CN(c2ccc(C#N)c3nccnc23)C[C@H](C(=O)NCC2CCS(=O)(=O)C2)O1 (stereo partly shown) has what recorded pIC50?
a: > 7.12

q: Item CN1CCN(CC(=O)N[C@@H]2C[C@H](C(F)(F)F)CN(c3ccc(C(F)(F)F)c4ncccc34)C2)CC1 has what recorded pIC50?
a: > 7.12

q: Item C[C@@H]1CN(c2cnc(C#N)c3ncccc23)C[C@H](CNC(=O)[C@@]2(F)CCNC2)O1 (single isomer, unassigned) has what recorded pIC50?
a: > 7.12

q: Item C[C@H]1C[C@@H](NCCNS(C)(=O)=O)CN(c2ccc(C#N)c3nccnc23)C1 has what recorded pIC50?
a: > 7.12

q: Item Cc1nnc([C@H]2CN(c3ccc(C#N)c4nccnc34)C[C@@H](C)O2)o1 (racemic) has what recorded pIC50?
a: > 7.12

Consider the following items and state reported pIC50 for each.
1. C[C@@H]1CN(c2cnc(C#N)c3ncccc23)C[C@H](C(=O)NCC(O)C(F)(F)F)O1 (stereo partly shown)
2. C[C@@H]1CN(c2cnc(C#N)c3ncccc23)C[C@H](CN2CCC(N3CCOCC3)CC2)O1
3. C[C@@H]1CN(c2ccc(C#N)c3nccnc23)C[C@H](C(=O)NC[C@H]2COCCN2C)O1 (single isomer, unassigned)
4. N#Cc1ccc(N2C[C@H](N)C[C@H](C(F)(F)F)C2)c2ccc(=O)[nH]c12

a:
["< 6.82", "> 7.12", "> 7.12", "< 6.82"]

q: Item C[C@@H]1CN(c2ccc(C#N)c3nccnc23)C[C@H](c2nc(C3CC3)no2)O1 (racemic) has what recorded pIC50?
a: > 7.12
